fold induction at 2 µM for assorted compounds
System: Renilla_ERa
Assay: Renilla signal in ERα counterscreen (Renilla_ERa)
Format: cell-based
Conditions: 2 uM; read-out: Renilla ERalpha transient, cmpd/DMSO (mean)
REPORTED_ENDPOINT: fold induction at 2 µM

[[record]]
compound = "CCOC(=O)c1cnc2c(Cl)cc(Cl)cc2c1NCCCN1CCCCC1"
experimental_result = 1

[[record]]
compound = "Cc1cc(C)nc(Nc2nc(-c3ccccc3)c(CC(=O)O)s2)n1"
experimental_result = 1.1

[[record]]
compound = "N#Cc1c(C(F)(F)F)nc2ccc(Oc3ccccc3)cc2c1NCCc1ccc(Cl)cc1"
experimental_result = 1.1

[[record]]
compound = "Cc1cc(C)c2ncc(C(=O)N(C)C)c(NCCCN(C)C)c2c1"
experimental_result = 1

[[record]]
compound = "Cc1cc(C)c2ncc(C(=O)O)c(NCCCN(C)C)c2c1"
experimental_result = 1.1

[[record]]
compound = "COc1ccc2nc(C(F)(F)F)c(C#N)c(N3CCN(C)CC3)c2c1"
experimental_result = 1

[[record]]
compound = "N#CC1=C(N)n2nc(-c3ccccc3)cc2NC1(c1ccc(N2CCOCC2)cc1)C(F)(F)F (stereo not drawn)"
experimental_result = 1

[[record]]
compound = "COc1ccc(-c2cc3n(n2)C(N)=C(C#N)C(c2cccn2C)(C(F)(F)F)N3)cc1OC (stereo not drawn)"
experimental_result = 1

[[record]]
compound = "CCOC(=O)Cc1sc(Nc2nc(C)cc(C)n2)nc1-c1ccccc1"
experimental_result = 1.2

[[record]]
compound = "O=c1cccc2n1CC1CC2CN(c2nc(NCCC3=CCCCC3)nc(N3CCOCC3)n2)C1 (stereo not drawn)"
experimental_result = 1.1

[[record]]
compound = "O=c1c(Cl)c(Cl)cnn1-c1ccccc1"
experimental_result = 1.6

[[record]]
compound = "CCOC(=O)c1cnc2c(Cl)cc(Cl)cc2c1NCCCN1CCCC1"
experimental_result = 1.2

[[record]]
compound = "O=c1cccc2n1CC1CC2CN(c2nc(N3CCOCC3)nc(N3CCOCC3)n2)C1 (stereo not drawn)"
experimental_result = 1

[[record]]
compound = "Cc1cc(C)c2ncc(C(=O)N3CCCC3)c(NCCCN(C)C)c2c1"
experimental_result = 1

[[record]]
compound = "Cc1cc(C)c2ncc(C(=O)OC(C)C)c(NCCCN(C)C)c2c1"
experimental_result = 0.8

[[record]]
compound = "CCOC(=O)c1cnc2c(Cl)cc(Cl)cc2c1NCCCN(C)C"
experimental_result = 1.1

[[record]]
compound = "COc1ccc2nc(C(F)(F)F)c(C#N)c(NCc3ccc(Cl)cc3)c2c1"
experimental_result = 0.9

[[record]]
compound = "COC(=O)c1[nH]c2c(c(C(F)(F)F)nc3ccc(OC)cc32)c1N"
experimental_result = 1.2


---

Assay: PK in mice plasma
Assay type: in vivo
Conditions: Table 39; PO plasma, 3.18 mg/kg
REPORTED_ENDPOINT: K el (h⁻¹)

[[record]]
compound_structure = "COCCN[C@H]1CS(=O)(=O)C[C@@H]1S(=O)(=O)c1ccc(Cl)cc1"
unit_of_measure = "h⁻¹"
experimental_result = 1.2


---

Experiment: PK in mice plasma
Assay type: in vivo
Details: mouse; Table 41; IV plasma, 1.12 mg/kg
REPORTED_ENDPOINT: MRT last (min)

[[record]]
compound = "COCCN[C@H]1CS(=O)(=O)C[C@@H]1S(=O)(=O)c1ccc(Cl)cc1 [Compound D136]"
experimental_result = 15

